System: D-392MG (Glioblastoma)
Assay: combination Emax (second highest fraction inhibited in the dose matrix, 72 h); higher = more inhibition; extreme values may be limits of the assay
Recorded combination Emax, one value per entry.

Compound: C[C@@H](c1ccc2nccn2c1)n1nnc2ncc(-c3cnn(C)c3)nc21 [Savolitinib] + Cc1c2c(nn1C)CSCc1cc(n(C)n1)CSc1cc(c3ccccc3c1)OCCCc1c(C(=O)O)n(C)c3c-2c(Cl)ccc13 [AZD5991] (first compound max 1 µM, 7x7, partner max 1 µM)
combination Emax: 0.31
--
Compound: Cc1cc2ncnn2cc1Nc1ncc2c(n1)n(C1CCOCC1)c(=O)n2C [AZD7648] + CCN(CCO)CCCOc1ccc2c(Nc3cc(CC(=O)Nc4cccc(F)c4)[nH]n3)ncnc2c1 [AZD2811] (first compound max 10 µM, 7x7, partner max 1 µM)
combination Emax: 0.329

###

Recorded combination Emax, one value per entry.
Test system: MCF7 (Breast Carcinoma)
Assay: combination Emax (second highest fraction inhibited in the dose matrix, 72 h); higher = more inhibition; extreme values may be limits of the assay

Molecule: Cc1c2c(nn1C)CSCc1cc(n(C)n1)CSc1cc(c3ccccc3c1)OCCCc1c(C(=O)O)n(C)c3c-2c(Cl)ccc13 [AZD5991] + CN(C)CCCOc1ccc(-c2ccc3ncc4c(c3c2)n(C2CCOCC2)c(=O)n4C)cn1 [AZD0156] (first compound max 1 µM, 7x7, partner max 1 µM)
combination Emax: 0.612
--
Molecule: COc1cccc(OCCCN)c1-c1cc(Nc2cnc(C#N)cn2)n[nH]1 [Prexasertib] + CN(C)CCCOc1ccc(-c2ccc3ncc4c(c3c2)n(C2CCOCC2)c(=O)n4C)cn1 [AZD0156] (first compound max 1 µM, 7x7, partner max 1 µM)
combination Emax: 0.741

###

Recorded combination Emax, one value per entry.
Test system: Saos-2 (Osteosarcoma)
Assay: combination Emax (second highest fraction inhibited in the dose matrix, 72 h); higher = more inhibition; extreme values may be limits of the assay

Compound: Cc1c2c(nn1C)CSCc1cc(n(C)n1)CSc1cc(c3ccccc3c1)OCCCc1c(C(=O)O)n(C)c3c-2c(Cl)ccc13 [AZD5991] + CN(C)CCCOc1ccc(-c2ccc3ncc4c(c3c2)n(C2CCOCC2)c(=O)n4C)cn1 [AZD0156] (first compound max 1 µM, 7x7, partner max 1 µM)
combination Emax: 0.239
--
Compound: C[C@@H](Oc1cc(-c2cnn(C3CCNCC3)c2)cnc1N)c1c(Cl)ccc(F)c1Cl [Crizotinib] + CC1=C(C(=CC=C1)Cl)NC(=O)C2=CN=C(S2)NC3=CC(=NC(=N3)C)N4CCN(CC4)CCO [Dasatinib] (first compound max 10 µM, 7x7, partner max 2 µM)
combination Emax: 0.986
--
Compound: Cc1c2c(nn1C)CSCc1cc(n(C)n1)CSc1cc(c3ccccc3c1)OCCCc1c(C(=O)O)n(C)c3c-2c(Cl)ccc13 [AZD5991] + CC(=O)O[C@H]1C(=O)[C@@]2(C)[C@H]([C@H](OC(=O)c3ccccc3)[C@]3(O)C[C@H](OC(=O)[C@H](O)[C@@H](NC(=O)c4ccccc4)c4ccccc4)C(C)=C1C3(C)C)[C@]1(OC(C)=O)CO[C@@H]1C[C@@H]2O [Paclitaxel] (first compound max 1 µM, 7x7, partner max 3 µM)
combination Emax: 0.961

###

Test system: SK-LMS-1 (Other Solid Carcinomas);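 also: after 72 h of two-drug dosing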
Assay: Bliss excess, mean over the matrix (fraction); higher = more synergy
Endpoint: Bliss excess

Compound: Cc1c2c(nn1C)CSCc1cc(n(C)n1)CSc1cc(c3ccccc3c1)OCCCc1c(C(=O)O)n(C)c3c-2c(Cl)ccc13 [AZD5991] + CN(C)CCCOc1ccc(-c2ccc3ncc4c(c3c2)n(C2CCOCC2)c(=O)n4C)cn1 [AZD0156] (first compound max 1 µM, 7x7, partner max 1 µM)
Recorded Number: -0.0645
//
Compound: CC1(C)CCC(CN2CCN(c3ccc(C(=O)NS(=O)(=O)c4ccc(NCC5CCOCC5)c([N+](=O)[O-])c4)c(Oc4cnc5[nH]ccc5c4)c3)CC2)=C(c2ccc(Cl)cc2)C1 [Venetoclax] + C=CCn1c(=O)c2cnc(Nc3ccc(N4CCN(C)CC4)cc3)nc2n1-c1cccc(C(C)(C)O)n1 [AZD1775] (first compound max 1 µM, partner max 1 µM)
Recorded Number: -0.0306
//
Compound: CC(=O)c1c(C)c2cnc(Nc3ccc(N4CCNCC4)cn3)nc2n(C2CCCC2)c1=O [Palbociclib] + Cn1cnc2c(F)c(Nc3ccc(Br)cc3Cl)c(C(=O)NOCCO)cc21 [Selumetinib] (first compound max 10 µM, 7x7, partner max 10 µM)
Recorded Number: 0.0539
//
Compound: CC(=O)c1c(C)c2cnc(Nc3ccc(N4CCNCC4)cn3)nc2n(C2CCCC2)c1=O [Palbociclib] + Cc1c2c(nn1C)CSCc1cc(n(C)n1)CSc1cc(c3ccccc3c1)OCCCc1c(C(=O)O)n(C)c3c-2c(Cl)ccc13 [AZD5991] (first compound max 10 µM, 7x7, partner max 1 µM)
Recorded Number: -0.0081
//
Compound: Cn1cnc2c(F)c(Nc3ccc(Br)cc3Cl)c(C(=O)NOCCO)cc21 [Selumetinib] + CCN(CCO)CCCOc1ccc2c(Nc3cc(CC(=O)Nc4cccc(F)c4)[nH]n3)ncnc2c1 [AZD2811] (first compound max 10 µM, 7x7, partner max 1 µM)
Recorded Number: -0.0047
//
Compound: COc1cccc(OCCCN)c1-c1cc(Nc2cnc(C#N)cn2)n[nH]1 [Prexasertib] + O=C(c1cc(Cc2n[nH]c(=O)c3ccccc23)ccc1F)N1CCN(C(=O)C2CC2)CC1 [Olaparib] (first compound max 1 µM, 7x7, partner max 10 µM)
Recorded Number: -0.0676
//
Compound: CN(CCO)CC[C@H](CSc1ccccc1)Nc1ccc(S(=O)(=O)NC(=O)c2ccc(N3CCC([C@@H](O)c4ccccc4-c4ccc(Cl)cc4)CC3)cc2)cc1S(=O)(=O)C(F)(F)F [AZD4320] + C=CCn1c(=O)c2cnc(Nc3ccc(N4CCN(C)CC4)cc3)nc2n1-c1cccc(C(C)(C)O)n1 [AZD1775] (first compound max 1 µM, partner max 1 µM)
Recorded Number: 0.0447
